system: HeLa Kyoto; test: melting temperature (median over replicates), in situ; higher = more thermally stable; conditions: cell cycle stage: mitosis;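 further: HeLa Kyoto cells synchronized by double thymidine or nocodazole block, proteins quantified by TMT10plex mass spectrometry, three independent biological replicates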
reported_endpoint: melting temperature (°C)
The response must be a number in °C with no trailing unit.

Some sequences with recorded melting temperature:
sequence_text	measurement_target	units_text	melting temperature
MAAEPLTELEESIETVVTTFFTFARQEGRKDSLSVNEFKELVTQQLPHLLKDVGSLDEKMKSLDVNQDSELKFNEYWRLIGELAKEIRKKKDLKIRKK [S100A13]	HeLa Kyoto	°C	52
MEMKKKINLELRNRSPEEVTELVLDNCLCVNGEIEGLNDTFKELEFLSMANVELSSLARLPSLNKLRKLELSDNIISGGLEVLAEKCPNLTYLNLSGNKIKDLSTVEALQNLKNLKSLDLFNCEITNLEDYRESIFELLQQITYLDGFDQEDNEAPDSEEEDDEDGDEDDEEEEENEAGPPEGYEEEEEEEEEEDEDEDEDEDEAGSELGEGEEEVGLSYLMKEEIQDEEDDDDYVEEGEEEEEEEEGGLRGEKRKRDAEDDGEEEDD [ANP32E]	HeLa Kyoto	°C	50.1

Moving on to the next sequence.
[Q] Which melting temperature value belongs to MSRRYDSRTTIFSPEGRLYQVEYAMEAIGHAGTCLGILANDGVLLAAERRNIHKLLDEVFFSEKIYKLNEDMACSVAGITSDANVLTNELRLIAQRYLLQYQEPIPCEQLVTALCDIKQAYTQFGGKRPFGVSLLYIGWDKHYGFQLYQSDPSGNYGGWKATCIGNNSAAAVSMLKQDYKEGEMTLKSALALAIKVLNKTMDVSKLSAEKVEIATLTRENGKTVIRVLKQKEVEQLIKKHEEEEAKAEREKKEKEQKEKDK [PSMA4] ?
[A] 60.5
